Tested on: Klebsiella pneumoniae
Conditions: Concentration 32 ug.mL-1; ASSAY_TEST Inhibition of Bacterial Growth; detection method Absorption (OD600); MEDIA CAMHB; plate type 384well; NBS; CORNING #3640; time 18 hr
Description: Antibacterial activity against Klebsiella pneumoniae MDR ATCC 70063 (CO-ADD:GN_003); MIC in CAMBH media using NBS plates, by OD(600)
Potency and affinity values are given separately.
MEASUREMENT NAME: Inhibition (%)
One number for each entry, in %.

>>> recorded_value("Nc1c2c(nc3ccccc13)CCN(Cc1ccccc1)C2")
4.75
>>> recorded_value("CN1CC=C(c2cccn2C)CC1.Cl")
8.46

Dear colleague, could you please provide Inhibition for the compounds listed below?
1. C#CCN(C)Cc1cc2cc(OC(=O)N(C)C)ccc2n1C
2. N#Cc1cc(C#N)c(N2C3CCC2CC3)nc1N
3. C#CCN(C)Cc1cc2cc(OCCCC3CCN(Cc4ccc(OC(=O)N(C)C)c5ncccc45)CC3)ccc2n1C
4. [N-]=[N+]=NCC(=O)c1ccc(Br)cc1
5. Cl.ClCCN1CCCC1
6. Nc1c2c(nc3c1C(c1ccccc1)CC(=O)N3)CCCC2 (centres undefined)
7. C#CCN1CCc2nc3nc(Cl)c(C#N)cc3c(N)c2C1

1: -2.9; 2: -5.68; 3: 4.78; 4: 7.99; 5: 3.45; 6: 11.64; 7: 7.38

Value source: ChEMBL document CHEMBL4513135
